src = patent US9550796B2

# Tested on: MV-4-11
# assay_overview: Cell growth inhibition assay (CellTiter-Glo), MV-4-11
# Type: cell-based, human
# test_settings: MV-4-11 cells, 4 days, total growth inhibition
# Procedure: Cell Growth Inhibition Assay The human leukemia cell lines MV-4-11, THP-1 and K-562 were employed to characterize the effect of BET inhibitors on cellular proliferation and viability. […] Compound-mediated suppression of cell proliferation/viability was assessed by quantification of cellular ATP levels using the CellTiter-Glo (CTG) reagent (Promega). […] Dose-response effects were assessed by 3-fold serial dilutions of the test compound, starting at 10 μM. […]
Bucketed by reported MV-4-11 TGI, buckets being LOW = under 30 nM, MEDIUM = from 30 nM up to 100 nM, HIGH = 100 nM and over

Looking at COc1ccc(-c2cc3c(n2C)C(c2ccc(Cl)cc2)N(c2cc(C)c(=O)n(C)c2)C3=O)cn1 (stereo not drawn) , which class would you pick?
MEDIUM

What do we get for Cn1ccc2c1C(c1ccc(C#N)cc1)N(c1cc(Cl)c(=O)n(C)c1)C2=O (stereo not drawn) ?
HIGH

For Cc1cc(N2C(=O)c3c(C4CN(C)C4)cn(C)c3C2c2ccc(Cl)cc2)cn2c(C)nnc12 (stereo not drawn) then?
HIGH

* * *

# Test system: MV-4-11
Catalogue of GI50 values
Response body: numeric value in nM, unit text excluded.

These solved cases illustrate the format of a correct answer.
>>> print(df.to_string())
                                   compound  study_target  unit_info  measured_result
0  Cc1cc(N2C(=O)c3c(NC(=O)OC(C)(C)C)cn(C)c3C2c2ccc(Cl)cc2)cn2c(C)nnc12 (stereo not shown)       MV-4-11         nM             37.3
1  CNC(=O)n1cc(C)c2c1C(c1ccc(Cl)cc1)N(c1cc(C)c3nnc(C)n3c1)C2=O (stereo not shown)       MV-4-11         nM               13

Now examine the next entry.
Which GI50 reading was recorded for the compound CNC(=O)c1cn(C)c2c1C(=O)N(c1cc(C)c3nnc(C(F)F)n3n1)C2c1ccc(Cl)cc1 (stereo not shown) ?
43.2

* * *

For reference, IC50 measured on BRD3 (Homo sapiens (Human)):
Write the answer as a number in nM, unit excluded.

>>> df
                                   compound  experimental_readout  unit_info  measured_result
0  Cc1cc(N2C(=O)c3cc(-c4cccn(C)c4=O)[nH]c3C2c2ccc(Cl)cc2)cn2c(C)nnc12 (stereo not shown)                  IC50         nM               23
1  Cc1cc(N2C(=O)c3ccn(C)c3C2c2ccc(Cl)c(F)c2)cn(C)c1=O (stereo not shown)                  IC50         nM              147
2  Cc1cc(N2C(=O)c3ccn(C)c3C2c2ccc(F)cc2)cn(C)c1=O (stereo not shown)                  IC50         nM              140
3  Cn1ccc2c1C(c1ccc(Cl)c(F)c1)N(c1cc(Cl)c(=O)n(C)c1)C2=O (stereo not shown)                  IC50         nM              196

Suppose we examine the compound Cc1cc(N2C(=O)c3cc(C4=CCOCC4)n(C)c3C2c2ccc(Cl)cc2)cn2c(C)nnc12 (stereo in doubt) ; what IC50 value has been reported?
13

Next record, please: Cn1c(-c2ccc(=O)n(C)c2)cc2c1C(c1ccc(Cl)cc1)N(c1cc(Cl)c(=O)n(C)c1)C2=O (stereo not shown)
53
